Catalogue of growth values
# Test system: OVCAR-3 ovarian
# method: NCI-60 one-dose screen, 48 h (100 = growth as untreated, 0 = no growth, -100 = all killed)
# run_conditions: 10 µM unless noted
This is part of a sample that, as a whole, favours compounds with a hit. Of some 83,000 tested, about 20% had one in any assay.

- structure_smiles_string: "CNC(=O)c1cnc(C)nc1-c1cc(C(C)(C)C)c(O)c(C(C)(C)C)c1"
  growth / %: 116
- structure_smiles_string: "Cc1cccc(Cl)c1NC(=O)c1cnc(Nc2cc(N3CCOCC3)cc(N3CCOCC3)c2)s1"
  growth / %: 19.7
- structure_smiles_string: "Clc1ccc2c(NCCCNCc3ccc4c(c3)OCO4)ccnc2c1"
  growth / %: 63.7
- structure_smiles_string: "Clc1ccc(Nc2nccc(Nc3ccc4[nH]ncc4c3)n2)cc1"
  growth / %: 52.1
- structure_smiles_string: "CNC(=O)c1cc(Oc2ccc(NC(=O)Nc3cc(C(C)(C)C)nn3-c3ccc4ncccc4c3)c(F)c2)ccn1"
  growth / %: 1.66
- structure_smiles_string: "O=C(O)c1ccc(Nc2ncc3c(n2)-c2ccc(Cl)cc2C(c2c(F)cccc2F)=NC3)cc1"
  growth / %: 64.5
- structure_smiles_string: "COc1cccc(Nc2ncnn3ccc(CN4CC[C@@H](N)[C@H](O)C4)c23)c1"
  growth / %: 44.1
- structure_smiles_string: "COc1cc2c(cc1OCCCN1Cc3ccc(OCCCCC(=O)N4CCC(CCN5CCCC5)CC4)cc3C1)N=C(N)C21CCCC1"
  growth / %: 99.2
- structure_smiles_string: "O=[N+]([O-])c1cc(Br)cc2c1[nH]c1ccc(Br)cc12"
  growth / %: 43.3

* * *

# Test system: HCT-15 colon
# method: NCI-60 one-dose screen, 48 h (100 = growth as untreated, 0 = no growth, -100 = all killed)
# run_conditions: 10 µM unless noted
# Experimental: Growth inhibition of the HCT-15 human tumor cell line is measured as a screen for anti-cancer activity. Cells are grown in 96 well plates and exposed to the test compound for 48 hours. Compounds are tested at a single concentration, which is 10^-5 M for most compounds. The reported endpoint is percent growth (GI% or GIPRCNT), where numbers from 0 - 100% represent growth inhibition, and numbers from -100% - 0 represent cell death. For example, a value of 40 represents 60% growth inhibition. […]
About 83,000 compounds went through this panel and 20% of them were active in at least one assay; those are over-represented in the sample as a whole. The source made the active and inactive calls. How the source made its calls: active means growth percent below 10; inactive means the rest.
# growth annotations
value_kind: growth

- compound: "Cc1nn(-c2nc3ccccc3[nH]2)c2c1C(c1ccc(OCc3ccc(F)cc3)cc1)CC(=O)N2 (centres undefined)"
  reported: "41.5% (inactive)"
- compound: "CNC(=O)c1cc(Oc2cccc3nc(Nc4ccc(Oc5ccccc5)cc4)ccc23)ccn1"
  reported: "54.7% (inactive)"
- compound: "COc1ccc(-c2cc3c(oc2=O)-c2ccccc2OC3OC(C)=O)cc1 (centres undefined)"
  reported: "86.2% (inactive)"
- compound: "C[C@@]1(C(=O)Nc2ccc(F)nc2)CCCN1c1nc(Nc2cc(C3CC3)[nH]n2)c2cccn2n1"
  reported: "26.5% (inactive)"
- compound: "COc1ccc(-c2ccc3ncc4c(c3c2)n(-c2ccc(N3CCNCC3)c(C(F)(F)F)c2)c(=O)n4C)cn1"
  reported: "-78.6% (active)"
- compound: "COc1ccc(S(=O)(=O)N(C(C)=O)c2ccccc2/C=C/c2cc[n+]([O-])cc2)cc1"
  reported: "17.9% (inactive)"
- compound: "Cn1ccnc1C(=O)/C=C/c1ccc(CC(=O)Nc2ccc(Br)cc2)cc1"
  reported: "5.5% (active)"
- compound: "Cc1ccc(F)c(NC(=O)Nc2ccc(-c3cccc4[nH]nc(N)c34)cc2)c1"
  reported: "7.06% (active)"
- compound: "CN(c1ncccc1CNc1nc(Nc2ccc3c(c2)CC(=O)N3)ncc1C(F)(F)F)S(C)(=O)=O"
  reported: "2.3% (active)"
- compound: "c1cc[n+](Cc2c3ccccc3cc3c2ccc2ccccc23)cc1"
  reported: "91.5% (inactive)"
- compound: "CN(C)C[C@@H]1CCn2cc(c3ccccc32)C2=C(C(=O)NC2=O)c2cn(c3ccccc23)CCO1"
  reported: "-31.7% (active)"
- compound: "Cc1nn(-c2ccccc2)c2c1N=c1s/c(=C\\c3cn(-c4ccccc4)nc3-c3ccc(Cl)cc3)c(=O)n1C(C)N2 (centres undefined)"
  reported: "85.8% (inactive)"
- compound: "O=C(O)c1ccc2c(c1)nc(Nc1cccc(Cl)c1)c1ccncc12"
  reported: "5.48% (active)"
- compound: "COc1cc(-c2nc(C(=O)Nc3ccc(C)cc3)nn2-c2ccc(F)c(F)c2)cc(OC)c1OC"
  reported: "94.7% (inactive)"
- compound: "COc1cc2ncnc3c2cc1OCCCCCN(C)Cc1ccc(Br)cc1N3"
  reported: "19.5% (inactive)"
- compound: "Nc1nc(=S)c2ncn(C3OC(COC(=O)c4ccc(Cl)cc4)C(OC(=O)c4ccc(Cl)cc4)C3OC(=O)c3ccc(Cl)cc3)c2[nH]1 (centres undefined)"
  reported: "95.5% (inactive)"
- compound: "NC(=O)c1c(OCc2c(F)cc(Br)cc2F)nsc1NC(=O)NCCCCN1CCCC1"
  reported: "5.99% (active)"
- compound: "ClCc1ccc(-c2ccc(Cn3cnc4nc(Cl)nc(Cl)c43)cc2)cc1"
  reported: "-5.13% (active)"
- compound: "COC1CCC(N2C(=O)CNc3ncc(-c4ccc(C(C)(C)O)nc4)nc32)CC1 (centres undefined)"
  reported: "10.1% (inactive)"
